Cited source for all entries: ChEMBL document CHEMBL4145649

Target: Cytochrome P450 2C9 (Homo sapiens, UniProt P11712)
Sequence (P11712 whole entry): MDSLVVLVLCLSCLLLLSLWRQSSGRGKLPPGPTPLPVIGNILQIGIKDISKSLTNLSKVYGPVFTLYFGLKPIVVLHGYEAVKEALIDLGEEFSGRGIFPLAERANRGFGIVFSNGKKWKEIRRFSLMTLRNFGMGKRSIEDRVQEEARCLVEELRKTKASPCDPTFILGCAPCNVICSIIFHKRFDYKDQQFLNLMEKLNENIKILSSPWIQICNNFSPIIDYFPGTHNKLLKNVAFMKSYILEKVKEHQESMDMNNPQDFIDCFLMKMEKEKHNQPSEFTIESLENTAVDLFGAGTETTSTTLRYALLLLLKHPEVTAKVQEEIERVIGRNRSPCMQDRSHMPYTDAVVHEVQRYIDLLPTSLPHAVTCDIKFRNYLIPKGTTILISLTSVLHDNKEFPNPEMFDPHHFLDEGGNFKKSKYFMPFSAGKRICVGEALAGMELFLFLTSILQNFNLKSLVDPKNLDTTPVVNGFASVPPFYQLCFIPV
measurement.kind: pIC50
Answers are plain numbers, as −log10 of the molar value.

Before answering, review these 2 worked examples.
* COc1ccncc1C#CCN | 4.55
* Cl.Cl.Cl.NCc1ccc(-c2cnccc2-c2cccnc2)o1 | 4.55

Lookup result for `Cc1ccncc1C#CCN.Cl.Cl` ; measured pIC50: 4.44

* * *

Biological target: Cytochrome P450 1A2 (Homo sapiens, UniProt P05177)
Sequence (P05177 whole entry): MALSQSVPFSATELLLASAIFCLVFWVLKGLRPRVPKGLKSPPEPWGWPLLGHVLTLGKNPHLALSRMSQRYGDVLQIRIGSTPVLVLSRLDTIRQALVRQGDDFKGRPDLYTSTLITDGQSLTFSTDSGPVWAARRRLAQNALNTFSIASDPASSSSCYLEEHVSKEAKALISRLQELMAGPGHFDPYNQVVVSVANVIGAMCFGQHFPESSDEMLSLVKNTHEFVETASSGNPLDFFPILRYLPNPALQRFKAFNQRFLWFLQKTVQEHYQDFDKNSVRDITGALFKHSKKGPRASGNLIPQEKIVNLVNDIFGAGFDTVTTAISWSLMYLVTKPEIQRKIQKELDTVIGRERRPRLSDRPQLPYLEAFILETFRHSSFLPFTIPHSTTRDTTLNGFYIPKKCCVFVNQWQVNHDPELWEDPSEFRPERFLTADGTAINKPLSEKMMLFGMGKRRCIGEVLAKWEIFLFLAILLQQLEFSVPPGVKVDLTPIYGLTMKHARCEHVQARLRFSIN
Threshold-based label: IC50 under 10 µM gives Fulfilled, IC50 not under 10 µM gives Not fulfilled.

Below are worked cases with known answers.
• Cc1ccncc1C#CCN.Cl.Cl = Not fulfilled
• Cl.Cl.Cl.NCc1ccc(-c2cnccc2-c2cccnc2)o1 = Fulfilled

Query: hey, is IC50 for `Cl.Cl.Cl.Cl.NCc1ccc(-c2cnccc2-c2cncnc2)s1` lower than 10 µM or not?
Result: Not fulfilled

Query: Is the reported IC50 for `COc1ccncc1C#CCN` strictly below 10 µM?
Result: Not fulfilled

Query: is_below(IC50, 10 µM) for `NCc1ccc(-c2cnccc2-c2ccco2)s1` ?
Result: Fulfilled

Query: Consider the compound `Cl.Cl.Cl.Cl.NCc1ccc(-c2cnccc2-c2cncnc2)o1` . Is its IC50 strictly less than 10 µM?
Result: Fulfilled

Query: Does `CCc1ccncc1C#CCN.Cl.Cl` have IC50 strictly under 10 µM?
Result: Not fulfilled
